pIC50: −log10 of the molar value.
# Cannabinoid receptor 2 (Homo sapiens, UniProt P34972): pIC50 values follow
# Sequence (P34972 whole entry): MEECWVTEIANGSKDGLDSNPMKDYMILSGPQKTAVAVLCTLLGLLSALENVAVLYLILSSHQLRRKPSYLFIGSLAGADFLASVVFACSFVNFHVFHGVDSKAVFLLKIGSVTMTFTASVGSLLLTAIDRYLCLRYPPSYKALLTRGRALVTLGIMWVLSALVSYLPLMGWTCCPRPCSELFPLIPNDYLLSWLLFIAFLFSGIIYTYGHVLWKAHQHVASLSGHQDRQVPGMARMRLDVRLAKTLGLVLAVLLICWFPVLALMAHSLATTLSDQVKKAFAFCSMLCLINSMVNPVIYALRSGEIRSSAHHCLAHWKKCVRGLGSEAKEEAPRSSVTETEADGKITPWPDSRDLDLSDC
Assay endpoint: pIC50

- Compound: "CC1(C)CC(NC(=O)CO)c2cc(-c3ccc(Cl)cc3)c(-c3ccc(Cl)cc3Cl)nc2O1 (single isomer, unassigned; enantiomer 2)"
  Assayed system: "Cannabinoid receptor 2 (Homo sapiens, UniProt P34972)"
  Readout relation: "="
  Meas value: 5.18
- Compound: "C[C@H](O)C(=O)NC1CC2(CCCCC2)Oc2nc(-c3ccccc3Cl)c(-c3ccc(Cl)cc3)cc21 (stereo in doubt; 12f)"
  Assayed system: "Cannabinoid receptor 2 (Homo sapiens, UniProt P34972)"
  Readout relation: "="
  Meas value: 5.00
- Compound: "CC(C)C1CC(=O)c2cc(-c3ccc(Cl)cc3)c(-c3ccccc3Cl)nc2O1 (racemic)"
  Assayed system: "Cannabinoid receptor 2 (Homo sapiens, UniProt P34972)"
  Readout relation: "="
  Meas value: 5.48
- Compound: "CC1(C)CC(NC(=O)CO)c2cc(-c3ccc(Cl)cc3)c(-c3ccccc3Cl)nc2O1 (single isomer, unassigned)"
  Assayed system: "Cannabinoid receptor 2 (Homo sapiens, UniProt P34972)"
  Readout relation: "="
  Meas value: 4.99
- Compound: "C[C@H](O)C(=O)NC1CC2(CCCCC2)Oc2nc(-c3ccccc3Cl)c(-c3ccc(Cl)cc3)cc21 (stereo in doubt; 12e)"
  Assayed system: "Cannabinoid receptor 2 (Homo sapiens, UniProt P34972)"
  Readout relation: "="
  Meas value: 5.74
- Compound: "COC1CC(C)(C)Oc2nc(-c3ccc(Cl)cc3Cl)c(-c3ccc(Cl)cc3)cc21 (racemic)"
  Assayed system: "Cannabinoid receptor 2 (Homo sapiens, UniProt P34972)"
  Readout relation: "="
  Meas value: 5.42
- Compound: "CC1(C)CC(C(N)=O)c2cc(-c3ccc(Cl)cc3)c(-c3ccc(Cl)cc3Cl)nc2O1 (single isomer, unassigned; enantiomer 1)"
  Assayed system: "Cannabinoid receptor 2 (Homo sapiens, UniProt P34972)"
  Readout relation: "="
  Meas value: 5.61
- Compound: "O=C1CC2(CCCC2)Oc2nc(-c3ccccc3Cl)c(-c3ccc(Cl)cc3)cc21"
  Assayed system: "Cannabinoid receptor 2 (Homo sapiens, UniProt P34972)"
  Readout relation: "="
  Meas value: 5.52
- Compound: "CC(C)(CO)NC(=O)C1CC(C)(C)Oc2nc(-c3ccc(Cl)cc3Cl)c(-c3ccc(Cl)cc3)cc21 (single isomer, unassigned; enantiomer 2)"
  Assayed system: "Cannabinoid receptor 2 (Homo sapiens, UniProt P34972)"
  Readout relation: "="
  Meas value: 5.13
- Compound: "O=C1CC(c2cccc(F)c2)Oc2nc(-c3ccccc3Cl)c(-c3ccc(Cl)cc3)cc21 (racemic)"
  Assayed system: "Cannabinoid receptor 2 (Homo sapiens, UniProt P34972)"
  Readout relation: "<"
  Meas value: 5.70
- Compound: "CC1(C)CC(C)(O)c2cc(-c3ccc(Cl)cc3)c(-c3ccc(Cl)cc3Cl)nc2O1 (racemic)"
  Assayed system: "Cannabinoid receptor 2 (Homo sapiens, UniProt P34972)"
  Readout relation: "="
  Meas value: 5.53
- Compound: "CC1(C)CC(NC(=O)CO)c2cc(-c3ccc(Cl)cc3)c(-c3ccccc3Cl)nc2O1 (single isomer, unassigned; enantiomer 1)"
  Assayed system: "Cannabinoid receptor 2 (Homo sapiens, UniProt P34972)"
  Readout relation: "<"
  Meas value: 5.70
- Compound: "CC(C)(O)C(=O)NC1CC2(CCCCC2)Oc2nc(-c3ccccc3Cl)c(-c3ccc(Cl)cc3)cc21 (single isomer, unassigned; enantiomer 1)"
  Assayed system: "Cannabinoid receptor 2 (Homo sapiens, UniProt P34972)"
  Readout relation: "="
  Meas value: 5.49
- Compound: "CC(C)(O)C(=O)NC1CC2(CCCCC2)Oc2nc(-c3ccccc3Cl)c(-c3ccc(Cl)cc3)cc21 (single isomer, unassigned; enantiomer 2)"
  Assayed system: "Cannabinoid receptor 2 (Homo sapiens, UniProt P34972)"
  Readout relation: "="
  Meas value: 4.92
- Compound: "CN1CCC2(CC1)CC(=O)c1cc(-c3ccc(Cl)cc3)c(-c3ccccc3Cl)nc1O2"
  Assayed system: "Cannabinoid receptor 2 (Homo sapiens, UniProt P34972)"
  Readout relation: "<"
  Meas value: 5.70

Where do the numbers come from? From ChEMBL document CHEMBL1158602.
